Experiment: Pharmacokinetic parameter half life determined after peroral administration of 15 mg/kg to dog
Conditions: in vivo, po
MEASURED_QUANTITY: half-life (min)
The reply should contain only the number, in min.

stdin: Quickly give me recorded half-life for CCC1(N(CCO)C(=O)c2ccccc2CCC(O)Cc2ccc(C)cc2C(=O)N(CC(CO)CO)C(C)(C)c2ccccc2)CCCC1 (stereo unspecified)
stdout: 20.4

---

Assay: Pharmacokinetic parameter half life determined after peroral administration of 25 mg/kg to monkey
Format: ADME, organism-based
Set-up: dose 25 mg/kg, route oral
Details: simiiformes, in vivo, po
MEASURED_QUANTITY: half-life (h)
Numeric only. Scale: h

stdin: Please supply the value of reported half-life for the item CCC1(N(CCO)C(=O)c2ccccc2CCC(O)Cc2ccc(C)cc2C(=O)N(CCO)C(C)(C)c2ccccc2)CCCC1 (stereo unspecified)
stdout: 1.07
